Test system: HL-60
Test: cells
Conditions: Homo sapiens, HL-60, 48 h
Description: Cytotoxicity against human HL60 cells after 48 hrs by MTT assay
pIC50: −log10 of the molar value.
Exercise: for every item that follows, state its recorded pIC50.

*Q* Consider the compound shown here: Cc1[nH]c(/C=C2\C(=O)Nc3ccncc32)c(C)c1C(=O)N1CCN(CCO)CC1 What is its recorded pIC50?
*A* < 4.30

*Q* Consider the compound shown here: O=C1Nc2cccnc2C1=Cc1c[nH]c2ccc(F)cc12 (mixture of isomers) What is its recorded pIC50?
*A* < 4.30

*Q* Consider the compound shown here: Cc1[nH]c(/C=C2\C(=O)Nc3ncccc32)c(C)c1C(=O)N1CCN(CCO)CC1 What is its recorded pIC50?
*A* < 4.30

*Q* Consider the compound shown here: O=C1Nc2cccnc2C1=Cc1c[nH]c2cc(F)ccc12 (mixture of isomers) What is its recorded pIC50?
*A* < 4.30

*Q* Consider the compound shown here: O=C1Nc2ccc(F)cc2/C1=C/c1c[nH]c2ccc(F)cc12 What is its recorded pIC50?
*A* < 4.30

*Q* Consider the compound shown here: Cc1[nH]c(/C=C2\C(=O)Nc3ccncc32)c(C)c1C(=O)N1CCN(C)CC1 What is its recorded pIC50?
*A* < 4.30

The values you see were collected from ChEMBL document CHEMBL1914337.
